Data origin, for the record: ChEMBL document CHEMBL4680140

- Test system: Hs 766
- test.details: Antiproliferative activity against human Hs 766 cells assessed as reduction in cell viability at 1 to 5 uM after 72 hrs by MTS assay
- Type: functional, cell-based
- assay.setup: dose 1-5 µM
The source made the active and inactive calls. The rule behind the calls is not given here.
quantity.name: Activity

compound: C#C[C@]1(O)CC[C@H]2[C@@H]3CCc4cc(OC)c(CN5CCN(C(=O)[C@@H]6CCCN6C(=O)c6ccc7ccccc7n6)CC5)cc4[C@H]3CC[C@@]21C
result: Active

compound: C#CC1(O)CC[C@H]2[C@@H]3CCc4cc(OC(C)=O)c(N5CCN(C(=O)[C@@H]6CCCN6C(=O)c6ccc7ccccc7n6)CC5)cc4[C@H]3CC[C@@]21C (single isomer, unassigned)
result: Active

---

Assign pIC50 to each entry below.
- Tested on: LAPC4
- test.details: Antiproliferative activity against human LAPC4 cells assessed as reduction in cell viability after 72 hrs by MTS assay
- Type: functional, cell-based
- assay.setup: LAPC4, 72 h
Answers are plain numbers, as −log10 of the molar value.

Use the examples below as a reference point.
compound: C#CC1(O)CC[C@H]2[C@@H]3CCc4cc(O)c(N5CCN(C(=O)[C@@H]6CCCN6C(=O)c6ccc7ccccc7n6)CC5)cc4[C@H]3CC[C@@]21C (single isomer, unassigned)
tested.system: LAPC4
quantity.name: pIC50
measured.number: 6.40
//
compound: C#CC1(O)CC[C@H]2[C@@H]3CCc4cc(OC(C)=O)c(N5CCN(C(=O)[C@@H]6CCCN6C(=O)c6ccc7ccccc7n6)CC5)cc4[C@H]3CC[C@@]21C (single isomer, unassigned)
tested.system: LAPC4
quantity.name: pIC50
measured.number: 6.30

Proceeding to the next compound to report its pIC50.
# input Indicate its recorded pIC50; the compound in question is C#CC1(O)CC[C@H]2[C@@H]3CCc4cc(OS(N)(=O)=O)c(N5CCN(C(=O)[C@@H]6CCCN6C(=O)c6ccc7ccccc7n6)CC5)cc4[C@H]3CC[C@@]21C (single isomer, unassigned)
# output 6.52

---

- test.details: Stability in human liver s9 fraction assessed as parent compound remaining at 10 uM after 1 hr by LC-MS analysis
- Format: ADME, subcellular
- assay.setup: read-out: Stabilty
Hi there, I'd appreciate the recorded remaining at 1 h, 10 µM for every entry that follows.
One number for each entry, in %.

// worked examples, remaining at 1 h, 10 µM included
compound: C#CC1(O)CC[C@H]2[C@@H]3CCc4cc(C(C)O)c(N5CCN(C(=O)[C@@H]6CCCN6C(=O)c6ccc7ccccc7n6)CC5)cc4[C@H]3CC[C@@]21C (single isomer, unassigned)
remaining at 1 h, 10 µM [%]: 35

compound: C#CC1(O)CC[C@H]2[C@@H]3CCc4cc(O)c(N5CCN(C(=O)[C@@H]6CCCN6C(=O)c6ccc7ccccc7n6)CC5)cc4[C@H]3CC[C@@]21C (single isomer, unassigned)
remaining at 1 h, 10 µM [%]: 35

compound: C#C[C@]1(O)CC[C@H]2[C@@H]3CCc4cc(OC)c(N5CCN(C(=O)[C@@H]6CCCN6C(=O)c6ccc7ccccc7n6)CC5)cc4[C@H]3CC[C@@]21C
remaining at 1 h, 10 µM [%]: 35

compound: C#C[C@]1(O)CC[C@H]2[C@@H]3CCc4cc(OC)c(C(=O)N5CCN(C(=O)[C@@H]6CCCN6C(=O)c6ccc7ccccc7n6)CC5)cc4[C@H]3CC[C@@]21C
remaining at 1 h, 10 µM [%]: 52

# input Complete the entry with remaining at 1 h, 10 µM for `C#Cc1cc2c(cc1N1CCN(C(=O)[C@@H]3CCCN3C(=O)c3ccc4ccccc4n3)CC1)[C@H]1CC[C@@]3(C)[C@@H](CC[C@@]3(O)C#C)[C@@H]1CC2`
# output 52

---

Consider the following molecules; for each one, report its pIC50.
- System: MCF7
- test.details: Antiproliferative activity against human MCF7 cells assessed as reduction in cell viability after 72 hrs by MTS assay
- Type: functional, cell-based
- assay.setup: MCF7, 72 h
One number for each entry, as −log10 of the molar value.

molecule: C#CC1(O)CC[C@H]2[C@@H]3CCc4cc(O)c(N5CCN(C(=O)[C@@H]6CCCN6C(=O)c6ccc7ccccc7n6)CC5)cc4[C@H]3CC[C@@]21C (single isomer, unassigned)
tested.system: MCF7
measured.number: 5.85

# map each molecule to its pIC50
1. C#C[C@]1(O)CC[C@H]2[C@@H]3CCc4cc(OC)c(C(=O)N5CCN(C(=O)[C@@H]6CCCN6C(=O)c6ccc7ccccc7n6)CC5)cc4[C@H]3CC[C@@]21C
2. C#C[C@]1(O)CC[C@H]2[C@@H]3CCc4cc(OC)c(N5CCN(C(=O)[C@@H]6CCCN6C(=O)c6ccc7ccccc7n6)CC5)cc4[C@H]3CC[C@@]21C

# output
5.66
5.59
